# reported pEC50; entries follow
- system tested: ΔF508-CFTR (Homo sapiens, UniProt P13569, DEL508-508)
- Construct: host or cells: CFBE41o-, doxycycline-inducible
- Sequence (P13569 with tags, fused parts or gaps DEL508-508): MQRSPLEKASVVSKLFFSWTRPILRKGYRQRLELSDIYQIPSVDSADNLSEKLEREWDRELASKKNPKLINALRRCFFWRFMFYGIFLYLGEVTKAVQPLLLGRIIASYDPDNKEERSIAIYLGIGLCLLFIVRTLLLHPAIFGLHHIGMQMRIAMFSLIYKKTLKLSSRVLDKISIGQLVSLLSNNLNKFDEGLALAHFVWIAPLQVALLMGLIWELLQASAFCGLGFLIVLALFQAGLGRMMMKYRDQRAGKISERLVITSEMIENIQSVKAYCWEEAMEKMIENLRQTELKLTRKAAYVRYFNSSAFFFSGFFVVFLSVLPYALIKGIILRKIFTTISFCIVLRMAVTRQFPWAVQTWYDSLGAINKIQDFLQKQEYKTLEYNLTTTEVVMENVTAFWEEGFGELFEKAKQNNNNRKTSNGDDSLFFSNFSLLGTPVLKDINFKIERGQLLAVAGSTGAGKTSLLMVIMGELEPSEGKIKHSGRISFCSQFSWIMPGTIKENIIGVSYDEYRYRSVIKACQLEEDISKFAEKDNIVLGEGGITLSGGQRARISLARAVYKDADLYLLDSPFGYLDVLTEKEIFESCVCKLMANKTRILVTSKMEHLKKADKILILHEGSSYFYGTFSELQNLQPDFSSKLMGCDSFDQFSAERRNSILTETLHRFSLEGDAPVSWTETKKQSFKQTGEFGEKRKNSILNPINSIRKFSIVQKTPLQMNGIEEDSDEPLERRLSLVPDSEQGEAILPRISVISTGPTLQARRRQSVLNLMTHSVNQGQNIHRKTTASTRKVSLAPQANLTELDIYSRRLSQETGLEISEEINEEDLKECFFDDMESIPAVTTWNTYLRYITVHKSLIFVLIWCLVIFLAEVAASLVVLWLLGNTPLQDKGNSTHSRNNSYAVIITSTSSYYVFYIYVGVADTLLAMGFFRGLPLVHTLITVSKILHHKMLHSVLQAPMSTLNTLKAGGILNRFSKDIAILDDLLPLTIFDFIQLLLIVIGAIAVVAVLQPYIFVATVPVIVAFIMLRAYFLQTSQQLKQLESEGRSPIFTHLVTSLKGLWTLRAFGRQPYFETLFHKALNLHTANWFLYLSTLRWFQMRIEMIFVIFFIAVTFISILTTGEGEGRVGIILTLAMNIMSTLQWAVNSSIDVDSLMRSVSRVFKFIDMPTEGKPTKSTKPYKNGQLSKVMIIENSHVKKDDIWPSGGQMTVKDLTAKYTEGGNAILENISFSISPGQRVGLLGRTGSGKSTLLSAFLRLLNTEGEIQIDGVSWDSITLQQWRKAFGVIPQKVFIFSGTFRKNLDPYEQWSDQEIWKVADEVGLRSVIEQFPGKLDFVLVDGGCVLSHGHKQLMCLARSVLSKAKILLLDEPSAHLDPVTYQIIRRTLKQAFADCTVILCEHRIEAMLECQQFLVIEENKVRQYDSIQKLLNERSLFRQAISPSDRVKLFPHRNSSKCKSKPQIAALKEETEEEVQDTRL
- test summary: CFTR cell surface levels using HRP-tagged ΔF508-CFTR expressing CFBE cells, in the presence of a co-corrector
- Type: cell-based
- assay context: HRP-tagged ΔF508-CFTR expressing CFBE cells, in the presence of 3 μM co-corrector; read-out: EC50
Please express pEC50 as -log10 of the molar concentration.

Solved cases (2 shown):
Find the measured pEC50: item Cc1nn(C)cc1-c1cc(C(=O)O)nc2c1c(C(C)C)nn2C1CCCCC1 [compound 352] , target or system ΔF508-CFTR (Homo sapiens, UniProt P13569, DEL508-508).
5.84

Find the measured pEC50: item CC(C)c1nn(C2CCCOC2)c2nc(C(=O)O)cc(-c3ccc(N4CCOCC4)cc3)c12 (stereo not shown) [compound 68] , target or system ΔF508-CFTR (Homo sapiens, UniProt P13569, DEL508-508).
5.86

Now take the following compound into account.
Find the measured pEC50: item O=C(O)c1cc(N2CCC(N3CCCC(C(F)(F)F)C3)CC2)c2c(C3CCC3)nn(-c3ccc(F)cc3)c2n1 (stereo not shown) [compound 874] , target or system ΔF508-CFTR (Homo sapiens, UniProt P13569, DEL508-508).
7.08
